- system-tested: Type-1 angiotensin II receptor (Oryctolagus cuniculus, UniProt P34976)
- Sequence (P34976 whole entry): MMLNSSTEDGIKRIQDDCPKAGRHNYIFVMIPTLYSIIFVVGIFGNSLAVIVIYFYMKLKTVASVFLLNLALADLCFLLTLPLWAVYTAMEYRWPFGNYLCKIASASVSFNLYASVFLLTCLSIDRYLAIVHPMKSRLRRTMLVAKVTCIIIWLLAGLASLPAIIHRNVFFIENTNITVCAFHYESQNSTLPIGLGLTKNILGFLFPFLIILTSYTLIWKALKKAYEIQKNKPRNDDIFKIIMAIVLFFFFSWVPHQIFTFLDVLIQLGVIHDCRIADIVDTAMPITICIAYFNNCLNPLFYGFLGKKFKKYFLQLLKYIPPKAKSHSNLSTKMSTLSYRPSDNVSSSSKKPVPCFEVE
- test-name: In vitro inhibitory activity against Angiotensin II receptor, type 1 to displace 125I-Sar,Ile8-AII in rabbit aorta
- Assay type: tissue-based
test-readout: pIC50
Bear in mind: pIC50 is minus log10 of a mol/L concentration; give just that figure.

For the compound CCCCc1ncc(C(=O)OC)n1Cc1ccc(-c2ccccc2S(=O)(=O)NC(=O)c2ccccc2)cc1 , the measured pIC50 on Type-1 angiotensin II receptor (Oryctolagus cuniculus, UniProt P34976) was 7.68

CCCCc1ncc(C(=O)O)n1Cc1ccc(-c2ccccc2NS(=O)(=O)NC(=O)C2CC2)cc1 tested on Type-1 angiotensin II receptor (Oryctolagus cuniculus, UniProt P34976) gave pIC50: 8.13

Observed pIC50, Type-1 angiotensin II receptor (Oryctolagus cuniculus, UniProt P34976), CCCCCCCC(=O)NS(=O)(=O)Nc1ccccc1-c1ccc(Cn2c(C(=O)OC)cnc2CCCC)cc1 : 8.72

pIC50 value, target or system Type-1 angiotensin II receptor (Oryctolagus cuniculus, UniProt P34976), for CCCCCCCC(=O)NS(=O)(=O)Nc1ccccc1-c1ccc(Cn2c(C(=O)O)cnc2CCCC)cc1 : 9.70

Bench note, Type-1 angiotensin II receptor (Oryctolagus cuniculus, UniProt P34976): CCCc1nc(CC)c(C=O)n1Cc1ccc(-c2ccccc2S(=O)(=O)NC(=O)C2CC2)cc1 , pIC50 reads 7.92

Type-1 angiotensin II receptor (Oryctolagus cuniculus, UniProt P34976) assay, compound CCCCc1nc(Cl)c(C(=O)OC)n1Cc1ccc(-c2ccccc2S(=O)(=O)NC(=O)c2ccccc2)cc1 , recorded pIC50 = 8.06

====

- system-tested: UniProtKB P35351
- Sequence (P35351 whole entry): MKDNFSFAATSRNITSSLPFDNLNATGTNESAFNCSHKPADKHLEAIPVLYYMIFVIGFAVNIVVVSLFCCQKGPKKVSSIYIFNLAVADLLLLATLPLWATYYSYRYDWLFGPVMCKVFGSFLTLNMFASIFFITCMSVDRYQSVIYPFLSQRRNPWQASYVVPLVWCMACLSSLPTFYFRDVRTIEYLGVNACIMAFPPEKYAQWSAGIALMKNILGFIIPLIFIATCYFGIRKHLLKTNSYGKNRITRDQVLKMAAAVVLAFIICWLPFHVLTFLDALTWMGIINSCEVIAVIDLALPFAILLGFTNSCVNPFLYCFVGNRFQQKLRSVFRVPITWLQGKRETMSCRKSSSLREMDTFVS
test-readout: IC50 (µM)
Write the value in µM as a bare number.

CCCCc1ncc(C(=O)OC)n1Cc1ccc(-c2ccccc2NS(=O)(=O)NC(=O)c2ccccc2)cc1    1.8

Continue with the next compound.
Per the reported UniProtKB P35351 data, CCCCc1nc(Cl)c(C(=O)O)n1Cc1ccc(-c2ccccc2S(=O)(=O)NC(=O)c2ccccc2)cc1 has IC50 of 9.5

====

- system-tested: Type-2 angiotensin II receptor (Rattus norvegicus, UniProt P35351)
- Sequence (P35351 whole entry): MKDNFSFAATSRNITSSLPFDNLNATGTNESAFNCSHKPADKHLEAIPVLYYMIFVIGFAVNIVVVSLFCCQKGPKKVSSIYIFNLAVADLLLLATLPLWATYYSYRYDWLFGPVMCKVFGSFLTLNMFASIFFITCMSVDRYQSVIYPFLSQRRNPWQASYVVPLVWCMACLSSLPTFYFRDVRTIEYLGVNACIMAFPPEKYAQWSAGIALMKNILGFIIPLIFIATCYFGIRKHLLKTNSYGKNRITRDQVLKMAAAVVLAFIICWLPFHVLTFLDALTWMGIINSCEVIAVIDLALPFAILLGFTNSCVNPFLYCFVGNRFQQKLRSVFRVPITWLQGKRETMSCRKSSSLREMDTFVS
test-readout: pIC50
# reply with the number alone; pIC50 is -log10 of concentration in mol/L

Field: example entries. Status: answers known.
CCCCc1ncc(C(=O)OC)n1Cc1ccc(-c2ccccc2NS(=O)(=O)NC(=O)C2CC2)cc1    5.00
CCCCc1ncc(C(=O)O)n1Cc1ccc(-c2ccccc2S(=O)(=O)NC(=O)c2ccccc2)cc1    5.35

Kindly consider the entry below.
Given item CCCCCCCC(=O)NS(=O)(=O)Nc1ccccc1-c1ccc(Cn2c(C(=O)O)cnc2CCCC)cc1 , the value recorded as its pIC50 is 5.64
